For each of the molecules below, state its pEC50.
Target: human 5-HT2C receptor (Homo sapiens, UniProt P28335, I156V/I160V/N158S)
Sequence (P28335 33-458 I156V/N158S/I160V limits assumed): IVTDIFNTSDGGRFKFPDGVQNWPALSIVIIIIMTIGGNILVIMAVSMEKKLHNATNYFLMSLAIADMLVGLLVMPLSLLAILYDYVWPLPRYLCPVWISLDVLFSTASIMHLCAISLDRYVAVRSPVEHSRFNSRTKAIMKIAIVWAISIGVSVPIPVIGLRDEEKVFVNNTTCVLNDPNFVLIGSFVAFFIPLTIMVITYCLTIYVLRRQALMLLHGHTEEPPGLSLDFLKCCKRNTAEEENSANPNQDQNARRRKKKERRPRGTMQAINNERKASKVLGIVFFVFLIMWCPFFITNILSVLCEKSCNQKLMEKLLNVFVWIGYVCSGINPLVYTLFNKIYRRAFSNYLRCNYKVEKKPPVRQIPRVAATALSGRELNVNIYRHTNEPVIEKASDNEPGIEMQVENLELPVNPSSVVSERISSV
Test: cell-based
Answers are plain numbers, as −log10 of the molar value.

Some solved entries appear below for comparison.
molecule	target system	outcome measure	numeric value
CN1CCc2nc3ccnn3c(N3CC(C(=O)N4CCC(C#N)C4)C3)c2CC1 (centres unmarked)	human 5-HT2C receptor (Homo sapiens, UniProt P28335, I156V/I160V/N158S)	pEC50	6.67
O=C(C1CN(c2c3c(nc4ccnn24)CCNCC3)C1)N1CCc2ccccc2C1	human 5-HT2C receptor (Homo sapiens, UniProt P28335, I156V/I160V/N158S)	pEC50	7.24
COCCNC(=O)C1CN(c2c3c(nc4ccnn24)CCNCC3)C1	human 5-HT2C receptor (Homo sapiens, UniProt P28335, I156V/I160V/N158S)	pEC50	7.06

Please give pEC50 for each item listed below.
1. COc1ccc(OC2CN(c3c4c(nc5ccnn35)CCNCC4)C2)c(Br)c1
2. Cc1cnn2c(N3CC(C(=O)N4CCC(c5ccccc5F)CC4)C3)c3c(nc12)CCNCC3
3. CO[C@@H]1CCN(C(=O)C2CN(c3c4c(nc5ccnn35)CCN(C)CC4)C2)C1
4. O=C(C1CN(c2c3c(nc4ccnn24)CCNCC3)C1)N1CCCCC(F)(F)C1
5. CN(C(=O)C1CN(c2c3c(nc4ccnn24)CCNCC3)C1)C1CCCC1
6. Cc1cnc(C2CN(c3c4c(nc5ccnn35)CCNCC4)C2)o1
7. CN1C2CCC1CC(NC(=O)C1CN(c3c4c(nc5ccnn35)CCNCC4)C1)C2 (centres unmarked)

## Output
[7.40, 7.09, 7.07, 8.15, 6.09, 6.07, 7.92]
